Source: paper PMC6212790

# measured on: GST-Rok-C97-191 (Bacillus subtilis subsp. subtilis str. …, UniProt O34857 97-191)
# Sequence: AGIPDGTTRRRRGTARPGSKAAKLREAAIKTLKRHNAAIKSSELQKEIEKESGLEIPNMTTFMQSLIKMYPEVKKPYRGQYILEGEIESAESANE
# experiment notes: protein binding microarray; Rok is a gene silencer of Bacillus subtilis; high values mean tight binding
# details: protein: recombinant; tags: GST (pTH5325, pDEST15-Magic modified); dsDNA, one strand shown
In all, about 33,000 sequences were measured (“e-score”: median about -0.038, highest 2% from about 0.33 on). The sample as a whole holds a higher share of the highest values than the screen did.
quantity measured: binding signal

Field binding signal (entry CGGAATTC ) reads 0.0787 E-score

# binding signal of ACTATGGA = 0.0778 E-score

sequence CATAGCTA , binding signal observed: 0.304 E-score

The reported value for ACATAGTA in terms of binding signal is 0.298 E-score

For AAATTATT the sequence record lists binding signal as 0.296 E-score
